tested on: Escherichia coli TOP10; assay: shrunken log2 fold change of peptide-encoding DNA abundance (4.5 h post-induction vs induction); higher = less antimicrobial activity (less host growth inhibition); details: time post-induction: 4.5 h; library: site-saturation at positions 5, 18, 19, 20
So basically: shrunken log2 fold change at -0.2 or higher? That is MET. Lower than -0.2? That is NOT MET.

These solved cases illustrate the format of a correct answer.
Data request: Can `RRIRVRPPRLPRPRPRPNISPRP` be said to have shrunken log2 fold change at or above -0.2?
Data returned: NOT MET

Data request: Dear colleague, could you confirm whether `RRIRPRPPRLPRPRPRPGDEPRP` has shrunken log2 fold change at or above -0.2?
Data returned: MET

Data request: Hello, I need to know if `RRIRFRPPRLPRPRPRPHQPPRP` has measured shrunken log2 fold change not below -0.2. Thanks!
Data returned: MET

Data request: Has `RRIRERPPRLPRPRPRPLIRPRP` a recorded shrunken log2 fold change greater than or equal to -0.2?
Data returned: MET

Data request: Tell me whether shrunken log2 fold change is at least -0.2 here: `RRIRTRPPRLPRPRPRPMAVPRP`
Data returned: NOT MET

Data request: Answer whether shrunken log2 fold change of `RRIRLRPPRLPRPRPRPKSVPRP` is greater than or equal to -0.2.
Data returned: MET

Others:
Data request: # check: shrunken log2 fold change of `RRIRVRPPRLPRPRPRPGIYPRP` is greater than or equal to -0.2
Data returned: NOT MET

Data request: # check: shrunken log2 fold change of `RRIRNRPPRLPRPRPRPGPQPRP` is greater than or equal to -0.2
Data returned: MET

----------
system: Escherichia coli TOP10; experiment: shrunken log2 fold change of peptide-encoding DNA abundance (4.5 h post-induction vs induction); higher = less antimicrobial activity (less host growth inhibition); details: time post-induction: 4.5 h; library: site-saturation at positions 5, 18, 19, 20
Entries get a class label from measured shrunken log2 fold change. See ranges: Low = under -0.1, Medium = from -0.1 up to 0.02, High = 0.02 and over

Data request: Class label required: `RRIRERPPRLPRPRPRPYLAPRP`
Data returned: Low

Data request: Category lookup for the sequence `RRIRMRPPRLPRPRPRPTQCPRP`
Data returned: Medium

Data request: Which of the defined bands does the recorded shrunken log2 fold change of `RRIRARPPRLPRPRPRPIISPRP` sit within?
Data returned: Low

Data request: Which class does `RRIRNRPPRLPRPRPRPHCNPRP` fall in?
Data returned: Low

Data request: Which class holds `RRIRLRPPRLPRPRPRPHWKPRP` ?
Data returned: Medium

Next:
Data request: Which bin should I file `RRIRPRPPRLPRPRPRPWKEPRP` under?
Data returned: Low

Data request: // return the class label for `RRIRDRPPRLPRPRPRPSYWPRP`
Data returned: Medium

Data request: Assign a category based on measured shrunken log2 fold change for `RRIRQRPPRLPRPRPRPSLTPRP` and give only the class name.
Data returned: High

Data request: Kindly identify the class of `RRIRARPPRLPRPRPRPQCLPRP` .
Data returned: High

Data request: Band for `RRIRERPPRLPRPRPRPMYKPRP` ?
Data returned: Medium

----------
tested on: Escherichia coli TOP10; assay: shrunken log2 fold change of peptide-encoding DNA abundance (4.5 h post-induction vs induction); higher = less antimicrobial activity (less host growth inhibition); conditions: time post-induction: 4.5 h; library: site-saturation at positions 5, 18, 19, 20;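 also: peptides expressed intracellularly from a pBAD plasmid library in pooled LB shake-flask culture, induced with 0.3% L-arabinose, DNA abundance read by NGS, three biological replicates, DESeq2 with apeglm shrinkage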
Listed here: items and their measured shrunken log2 fold change.
Write the value as a bare number.

The value of shrunken log2 fold change measured for the sequence `RRIRMRPPRLPRPRPRPGVMPRP` turned out to be 0.633

Notebook: `RRIRIRPPRLPRPRPRPTVKPRP` , shrunken log2 fold change read as -0.468

The sequence listed as `RRIRDRPPRLPRPRPRPVCDPRP` has a reported shrunken log2 fold change of 0.696

What the record says about `RRIRKRPPRLPRPRPRPEGVPRP` : shrunken log2 fold change is 1.44

Record `RRIRGRPPRLPRPRPRPAHVPRP` . Reported shrunken log2 fold change: 0.586

Note to self: shrunken log2 fold change recorded for `RRIRTRPPRLPRPRPRPMEKPRP` was -0.00136

// shrunken log2 fold change lookup, sequence = `RRIRYRPPRLPRPRPRPTMYPRP` , result: -0.33

Short answer for `RRIRWRPPRLPRPRPRPGISPRP` : shrunken log2 fold change was -0.00138

According to the records, this sequence `RRIRKRPPRLPRPRPRPYLPPRP` displays shrunken log2 fold change of -0.354

// recorded shrunken log2 fold change for `RRIRTRPPRLPRPRPRPVLLPRP` : -0.127

Next:
Field shrunken log2 fold change (entry `RRIRTRPPRLPRPRPRPVMFPRP` ) reads 0.32

// field: shrunken log2 fold change; key: `RRIRLRPPRLPRPRPRPAPCPRP` ; value = 0.0424

Note to self: shrunken log2 fold change recorded for `RRIRFRPPRLPRPRPRPFSCPRP` was -0.599

Memo: `RRIRFRPPRLPRPRPRPLNAPRP` , reported shrunken log2 fold change: -0.166

The sequence `RRIRTRPPRLPRPRPRPDRFPRP` showed shrunken log2 fold change equal to 0.0382
